Assay: protein stability index of a GFP-peptide fusion (GPS, HEK-293T) (PSI 1-6); higher = more stable;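 also: 24-mer peptide tiles fused after GFP, lentivirally expressed, FACS-sorted into six equal bins by GFP/DsRed ratio, decoded by Illumina sequencing, PSI is the read-weighted mean bin number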
Settings: treatment: MLN4924 1 uM, 8 h; c terminus: a fixed tail appended
measured.attribute: protein stability index

# seq, experimental.result
measured = [
    ("TREAHRESSVPVTPSVPPPASQHS [FBF1]", 5.07),
    ("QVLNETRNQYEALVETNRREVEQW [KRT33B]", 4.5),
    ("VNSVCWASLNHLDSHILLCLMGLA [DCAF4]", 2.69),
    ("ETRVWHRRDGKWQNVHFHRSGSPT [CAMK2D]", 3.71),
    ("QKTSRSSSIPCSGSLDGRELSRQV [PPEF2]", 4.48),
    ("SRQGSAEALRALQEGLWLDRGTRV [PKD2L1]", 3.28),
    ("DNLLPGMQPSKPQQPSLNTMIQQQ [CLINT1]", 4.45),
    ("LHYGLPVVVKLLHPPSHWPLIKAT [CTNNB1]", 2.46),
    ("LQSLDDTELRLLGRTHSACDALRT [RSAD1]", 3.85),
    ("EDEKLCDPNTRPVGEKNCTGPPCD [ADAMTSL2]", 5.46),
    ("QRALHKYSLMKRQMMSATAQNREP [SNX8]", 3.32),
    ("DGRSLSKLNLCEDGPCHKRRASIC [SCARA5]", 3.93),
    ("EGSGHSTGEDSAFQEPDSPLPPAR [WEE1]", 5.52),
    ("HLYPADFRFDKPKKSRSPASAEAP [ZNF511]", 3.83),
    ("KDVRAPSRPAVGPPQPGCPAFIIV [ZSWIM9]", 2.43),
    ("NFLLFDMTTHPLTNNNIKQRLIKK [GOLPH3]", 2.81),
    ("TNALTHTVAMSTLNFCGPNVINHF [OR3A1]", 2.47),
    ("EEALKDEEERAQDRIATTDDTTAM [MAGEA10]", 5.47),
    ("LEVPKPGQPSEPEHGPSPGQDTFC [CHIT1]", 5.23),
    ("FQTRQEMTSMSAELKMRAIQAEER [LRRC45]", 4.48),
    ("GDAHFDEDERWTNNFREYNLHRVA [MMP1]", 4.11),
    ("RSRGKVLKTKDGKLPFCAMGVSSV [CPOX]", 3.15),
    ("AELLKKQEELNRKAEELDRREREL [SCAMP3]", 5.44),
    ("NLINQMLTINPAKRITAHEALKHP [CAMK2B]", 2.23),
    ("SPAQQVPKNPALEAFLAQFSQLED [TOR1AIP2]", 4.38),
    ("GDFEEAFDHLQNRLIATKNPEEIR [TENT5C]", 5.19),
    ("FNIFDWLGRSLTAVFMWPGKDSRW [SLC29A1]", 2.63),
]

====

Assay: protein stability index of a GFP-peptide fusion (GPS, HEK-293T) (PSI 1-6); higher = more stable
Conditions: treatment: DMSO; c terminus: a fixed tail appended
Response key: met means protein stability index >= 4; not met means protein stability index < 4.

# seq, answer.label
records = [
    ("MDSGTRPVGSCCSSPAGLSREYKL [RIT1]", "not met"),
    ("ITERDKRPEGYNLKDEEGKLKDLS [PPP2R2C]", "met"),
    ("IKSIVEASKGCQLGKTEQGFENMD [TRIM63]", "met"),
    ("LPNHKPKGTFKDYVRDRADLNKDK [ETS1]", "met"),
    ("NSISSDKEATVPCTEILTEKKDTI [MIA2]", "met"),
    ("TKILQERAVLGANDPEKNFLTTAI [NSDHL]", "not met"),
    ("TVDLELELQIELLRETKRKYESVL [ARFIP2]", "not met"),
    ("PTPTSLEVSSPPDTTEEVDHKPKL [PDZK1]", "met"),
    ("ALGDIREVQKLVESGVDVNSQNEV [ANKRD40]", "met"),
    ("PESLTKPDQVAPFTFLQPLPLSPG [ATF4]", "met"),
    ("AGFDAARGDPLGGCQVSPEGYAHL [HDAC6]", "not met"),
    ("AAALKCQLCEKAPKEATVMCEQCD [TRIM9]", "met"),
    ("SNTLGFGTEQAPYGMQTQNYPKGG [ETS2]", "met"),
]

====

Assay: protein stability index of a GFP-peptide fusion (GPS, HEK-293T) (PSI 1-6); higher = more stable
Details: treatment: MLN4924 1 uM, 8 h; c terminus: a fixed tail appended
Grouping by measured protein stability index is done with the following cut points: low = under 3, middle = from 3 up to 5, high = 5 and over

# seq, answer.label
data = [
    ("KSVLKSDEEHMEEAITSASFLEQI [FAM189A2]", "middle"),
    ("ENHEIYMKDSMSAAEVGTGQYATT [EPB41L3]", "middle"),
    ("PHKGLNLHPLLSGRLGRWLRSTRF [PCDHGC5]", "low"),
    ("QDSPLDLTVRKSQSEPSEQDGVLD [LCOR]", "high"),
    ("ACDLQPCPTEPPDDSCQDQPGTNC [ADAMTSL2]", "high"),
    ("LLQRELMVPGTRHSAVLRDLRSGT [TNXB]", "low"),
    ("KLTKESYPVVVAESMYGDFQEAMT [TENT5D]", "middle"),
    ("KSSSSSSSSSSSSSSSSSSSSSGP [TMEM40]", "high"),
    ("EKPPSGTKEKKHQCDHCERCFYTR [PLAGL1]", "middle"),
    ("AARVGLLQYSTQVHTEFTLRNFNS [MATN2]", "low"),
    ("EELEQEELNKKMTNIRLPNVPSSS [CHMP4C]", "high"),
    ("NAEMKSAMRKLWSKKVSLAGKWLY [OR4A15]", "low"),
    ("PYTRSIQILKDTKSITSAMNELQH [TPH1]", "low"),
    ("FFRMFDRNTKRDVTLEASRENSKP [PPP2R2B]", "middle"),
    ("DFVNLMAYDFHGSWEKVTGHNSPL [CHIT1]", "low"),
    ("NGFPDSTGDPLPEISKDNSCKENC [EDARADD]", "high"),
    ("AAETAAQGPTPRYFTWDEVAQRSG [FADS1]", "middle"),
    ("YPHCTGISQQDPESDSQGQGNGLF [ZC2HC1C]", "middle"),
    ("SDGGQKNKPREHIIDCGDIVWSLA [WSB1]", "middle"),
    ("GEAMLANFKPRGYSECIVTVGGEE [GAN]", "middle"),
    ("LRGALQQGEAFQRALESELQQLRA [PBXIP1]", "middle"),
    ("EKSQLIMQAEAEAASVRMRGEAEA [FLOT1]", "middle"),
    ("MKAKQEALVKEREKQLAKKEQSKE [FAM50A]", "high"),
]

====

Entries annotated with measured protein stability index
Assay: protein stability index of a GFP-peptide fusion (GPS, HEK-293T) (PSI 1-6); higher = more stable
Settings: treatment: DMSO; c terminus: a fixed tail appended

# seq, protein stability index
rows = [
    ("TLGEVPAAESPDPPQSPQGASSLP [MAGEA3]", 5.5),
    ("MEVGSGSRELSLRPSRSGAQQLEE [EID1]", 5.43),
    ("LLLCLKVDNHFNLLTTSPVFPHYI [TRIM43]", 3.03),
    ("PSLEDISCNTWPSMPSYSSCTVTT [TBX5]", 3.18),
    ("HCNVSNILHMNGSQSSTYRGTYEQ [ZNF396]", 3.17),
    ("VAMLGVFLVSAVAHEYIFCFVLGF [SOAT2]", 3.21),
    ("LRVLGSMCQRLRSMQYNGSYFDRG [DFFB]", 2.14),
    ("CIYSEVMEALDLQPGLSFLNLGSG [PCMTD2]", 2.29),
    ("VEMLCDQAWGSMLEVPAGSRLNLT [CCDC3]", 2.75),
    ("TKPVVILPCQHNLCRKCANDIFQA [TRIM63]", 2.36),
    ("TLSFNMSDKYPIQDTELPKAEECD [EDARADD]", 4.55),
    ("DETLYQEFNGLKKMNPKLKTLLAI [CHIT1]", 2.3),
    ("TDATAFWWGEWTKWTACSRSCGGG [ADAMTSL2]", 2.24),
    ("DEEEEEEEEEEGRFYYSEDDHGDE [KCNA4]", 5.56),
    ("VQSYMEHYCNSSTDRRVLLMFLDI [SPACA9]", 2.78),
    ("RWDPVRRRFIQSCPIIRIPNRFLR [KLHDC10]", 2.48),
    ("LLCVNYFFYGETVTDYFFTLVQRE [CDS2]", 2.9),
    ("ELFIITQLQSMPSRELASMNLDIV [RHOBTB3]", 2.31),
    ("KEEEQSCEYETRLPGNHSTSQEIF [ZNF232]", 5.02),
    ("NDSDHQSSTSPLMEGTPTIKSKKK [VPS39]", 5.45),
    ("YNSPQFKKTMSTFHNLVSLNLNYN [FBXO39]", 2.25),
    ("FSPTPPQQFQPAGTDQVCVLEWGA [FCHSD1]", 2.49),
    ("ADWLGLKDEDLDLFPASPTREAHR [FBF1]", 4.77),
    ("FEDLNKRKDTKEIYTHFTCATDTK [GNAI1]", 4.57),
    ("LRGSYNSLHDGSDGLDGISVGSYL [LURAP1L]", 3.08),
    ("YKMFASRRKQRYWPFSMDCTGTEA [LOXL2]", 2.3),
    ("TQARQVMEREFNNLLALGTDRKLD [PPFIA4]", 4.21),
    ("ELQGLPELHEECEGNHPSARKLTA [NET1]", 4.87),
    ("PEGNILRDRFKSFQRRNMIEPRER [NOP53]", 4.25),
    ("LCRAQRERLASANLRVLVDCILRD [TEKT4]", 2.08),
    ("HTKELEDKVIELHKSHRGMTPAEA [EPB41L3]", 5.2),
    ("WLHCVCVVGFDLELGQAVEVIYPQ [DENND6A]", 2.66),
    ("VKEPCSLPMLSVDMENKENGSVGV [SAMD13]", 5),
    ("TGERPHQCIECGKSFNRHCNLIRH [ZSCAN9]", 3.13),
    ("LGNLVEGLDFHRFYFENLWSRNSK [CAMK2A]", 2.2),
    ("SPTGLSPYLRFGCLSCRLFYFKLT [CRY1]", 1.84),
    ("KEEGTVNGASWHTVAGSLNDFSYL [CPXM2]", 3.35),
    ("HCTGNEATLAACTSNGWGVTDCKH [LOXL2]", 3.98),
    ("MLAIITKMTLTQVSTWFANARRRL [IRX6]", 2.29),
    ("PQLSPGSGTPQAGTPSPSRSRDSN [RTN2]", 5.2),
    ("ISVEGINHDIRTANDGDYWRLLNP [CPXM2]", 2.64),
    ("SDSGLSLDSSHSPSSLSSSEGSSS [NFE2L1]", 5.41),
    ("KVQDALQNQSDSLLALAGAVQRLE [SCARA5]", 3.16),
    ("PLRLFLIIANTMAFQNDVYEWARD [SCD]", 2.75),
    ("FDPDAKGLSDPGKIKRLRSQVQVS [HNF4A]", 3.84),
    ("SREFFNRRGELRHITKLKPWSLFD [SRPK2]", 2.56),
    ("EKIDKLEQDMERRKADFKAGKALV [ZC3H15]", 4.74),
    ("TGQSKIYSYMSPNKCSGMRFPLQE [KMT5A]", 2.28),
    ("VKTRLEQEIATYRRLLEGEDAHLT [KRT17]", 3.62),
    ("GRLGRRDEDAGLPRPVQLDETHPY [NEK8]", 4.46),
    ("IEIATYRKLLEGEESRISVPVHSF [PRPH]", 2.47),
    ("AIVQQVPAPSRMQMPQGNPLLLSH [SNX8]", 2.72),
    ("FYQHLLLYIQSHYQLELQCCIDWT [SMG5]", 3.17),
]
